System: Escherichia coli TOP10
Test: shrunken log2 fold change of peptide-encoding DNA abundance (4.5 h post-induction vs induction); higher = less antimicrobial activity (less host growth inhibition)
Details: time post-induction: 4.5 h; library: site-saturation at positions 5, 18, 19, 20
MEASUREMENT KIND: shrunken log2 fold change

{"columns": ["SEQUENCE ENTRY", "EXPERIMENTAL TARGET", "MEASUREMENT KIND", "OBSERVED VALUE"],
 "data": [
  ["RRIRKRPPRLPRPRPRPFYYPRP", "Escherichia coli TOP10", "shrunken log2 fold change", -0.587],
  ["RRIRPRPPRLPRPRPRPGLSPRP", "Escherichia coli TOP10", "shrunken log2 fold change", 0.206],
  ["RRIRLRPPRLPRPRPRPRPAPRP", "Escherichia coli TOP10", "shrunken log2 fold change", 0.454],
  ["RRIRIRPPRLPRPRPRPNYEPRP", "Escherichia coli TOP10", "shrunken log2 fold change", -0.396],
  ["RRIRMRPPRLPRPRPRPIQYPRP", "Escherichia coli TOP10", "shrunken log2 fold change", 0.0408],
  ["RRIRLRPPRLPRPRPRPHRCPRP", "Escherichia coli TOP10", "shrunken log2 fold change", -0.0644],
  ["RRIRIRPPRLPRPRPRPFAGPRP", "Escherichia coli TOP10", "shrunken log2 fold change", 0.0391],
  ["RRIRVRPPRLPRPRPRPHSLPRP", "Escherichia coli TOP10", "shrunken log2 fold change", -0.232],
  ["RRIRARPPRLPRPRPRPTIMPRP", "Escherichia coli TOP10", "shrunken log2 fold change", 0.15],
  ["RRIRFRPPRLPRPRPRPSFSPRP", "Escherichia coli TOP10", "shrunken log2 fold change", -0.702],
  ["RRIRTRPPRLPRPRPRPYCNPRP", "Escherichia coli TOP10", "shrunken log2 fold change", -1.32],
  ["RRIRRRPPRLPRPRPRPKVSPRP", "Escherichia coli TOP10", "shrunken log2 fold change", 0.267],
  ["RRIRGRPPRLPRPRPRPYKYPRP", "Escherichia coli TOP10", "shrunken log2 fold change", -0.346],
  ["RRIRCRPPRLPRPRPRPMQIPRP", "Escherichia coli TOP10", "shrunken log2 fold change", 0.0467],
  ["RRIRERPPRLPRPRPRPGQNPRP", "Escherichia coli TOP10", "shrunken log2 fold change", -0.0659],
  ["RRIRNRPPRLPRPRPRPHGQPRP", "Escherichia coli TOP10", "shrunken log2 fold change", -0.0642],
  ["RRIRERPPRLPRPRPRPCQKPRP", "Escherichia coli TOP10", "shrunken log2 fold change", -0.0135],
  ["RRIRFRPPRLPRPRPRPTFEPRP", "Escherichia coli TOP10", "shrunken log2 fold change", -0.00113],
  ["RRIRDRPPRLPRPRPRPRWEPRP", "Escherichia coli TOP10", "shrunken log2 fold change", -0.0171],
  ["RRIRRRPPRLPRPRPRPQKNPRP", "Escherichia coli TOP10", "shrunken log2 fold change", 0.204],
  ["RRIRVRPPRLPRPRPRPSHEPRP", "Escherichia coli TOP10", "shrunken log2 fold change", -0.225],
  ["RRIRTRPPRLPRPRPRPERMPRP", "Escherichia coli TOP10", "shrunken log2 fold change", 0.275],
  ["RRIRKRPPRLPRPRPRPRWTPRP", "Escherichia coli TOP10", "shrunken log2 fold change", 0.347],
  ["RRIRFRPPRLPRPRPRPEKIPRP", "Escherichia coli TOP10", "shrunken log2 fold change", 0.102],
  ["RRIRYRPPRLPRPRPRPRSYPRP", "Escherichia coli TOP10", "shrunken log2 fold change", -0.879],
  ["RRIRSRPPRLPRPRPRPQTQPRP", "Escherichia coli TOP10", "shrunken log2 fold change", 0.198],
  ["RRIRIRPPRLPRPRPRPNVRPRP", "Escherichia coli TOP10", "shrunken log2 fold change", 0.0422],
  ["RRIRSRPPRLPRPRPRPDYQPRP", "Escherichia coli TOP10", "shrunken log2 fold change", -0.242],
  ["RRIRERPPRLPRPRPRPTYFPRP", "Escherichia coli TOP10", "shrunken log2 fold change", -0.475],
  ["RRIRTRPPRLPRPRPRPKITPRP", "Escherichia coli TOP10", "shrunken log2 fold change", -0.464],
  ["RRIRFRPPRLPRPRPRPCKLPRP", "Escherichia coli TOP10", "shrunken log2 fold change", -1.48],
  ["RRIRQRPPRLPRPRPRPDNDPRP", "Escherichia coli TOP10", "shrunken log2 fold change", -0.0011]
]}

###

Tested on: Escherichia coli TOP10
Assay: shrunken log2 fold change of peptide-encoding DNA abundance (4.5 h post-induction vs induction); higher = less antimicrobial activity (less host growth inhibition)
Details: time post-induction: 4.5 h; library: site-saturation at positions 5, 18, 19, 20
A collection of sequences and their measured shrunken log2 fold change
MEASUREMENT KIND: shrunken log2 fold change

{"columns": ["SEQUENCE ENTRY", "OBSERVED VALUE"],
 "data": [
  ["RRIRPRPPRLPRPRPRPFDKPRP", -0.0386],
  ["RRIRFRPPRLPRPRPRPPCYPRP", -0.227],
  ["RRIRDRPPRLPRPRPRPEQQPRP", 0.374],
  ["RRIRSRPPRLPRPRPRPKFVPRP", -0.0276],
  ["RRIRERPPRLPRPRPRPQGDPRP", -0.0405],
  ["RRIRSRPPRLPRPRPRPWVEPRP", -0.214],
  ["RRIRLRPPRLPRPRPRPAVHPRP", -0.149],
  ["RRIRGRPPRLPRPRPRPALVPRP", 1.02],
  ["RRIRPRPPRLPRPRPRPRLGPRP", 0.586],
  ["RRIRHRPPRLPRPRPRPDYQPRP", -0.0951],
  ["RRIRCRPPRLPRPRPRPMRYPRP", 0.0209],
  ["RRIRTRPPRLPRPRPRPENTPRP", -0.0831],
  ["RRIRCRPPRLPRPRPRPRQMPRP", -0.136],
  ["RRIRARPPRLPRPRPRPSSNPRP", 1.2],
  ["RRIRMRPPRLPRPRPRPFAMPRP", 0.171]
]}

###

Test system: Escherichia coli TOP10;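 also: peptides expressed intracellularly from a pBAD plasmid library in pooled LB shake-flask culture, induced with 0.3% L-arabinose, DNA abundance read by NGS, three biological replicates, DESeq2 with apeglm shrinkage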
Experiment: shrunken log2 fold change of peptide-encoding DNA abundance (4.5 h post-induction vs induction); higher = less antimicrobial activity (less host growth inhibition)
Settings: time post-induction: 4.5 h; library: site-saturation at positions 5, 18, 19, 20
In this section we review reported shrunken log2 fold change values for a set of sequences.

{"columns": ["SEQUENCE ENTRY", "EXPERIMENTAL TARGET", "shrunken log2 fold change"],
 "data": [
  ["RRIRVRPPRLPRPRPRPRHAPRP", "Escherichia coli TOP10", 0.229],
  ["RRIRCRPPRLPRPRPRPVRWPRP", "Escherichia coli TOP10", 0.952],
  ["RRIRSRPPRLPRPRPRPLETPRP", "Escherichia coli TOP10", -0.122],
  ["RRIRFRPPRLPRPRPRPLQVPRP", "Escherichia coli TOP10", -0.135],
  ["RRIRPRPPRLPRPRPRPKMNPRP", "Escherichia coli TOP10", -0.273],
  ["RRIRDRPPRLPRPRPRPHCKPRP", "Escherichia coli TOP10", 0.0223],
  ["RRIRHRPPRLPRPRPRPLRPPRP", "Escherichia coli TOP10", 0.639],
  ["RRIRRRPPRLPRPRPRPHQWPRP", "Escherichia coli TOP10", 0.144],
  ["RRIRCRPPRLPRPRPRPMCNPRP", "Escherichia coli TOP10", -0.378],
  ["RRIRRRPPRLPRPRPRPEAYPRP", "Escherichia coli TOP10", 0.15],
  ["RRIRYRPPRLPRPRPRPVLGPRP", "Escherichia coli TOP10", 0.0727],
  ["RRIRPRPPRLPRPRPRPGLMPRP", "Escherichia coli TOP10", 0.184],
  ["RRIRDRPPRLPRPRPRPRCDPRP", "Escherichia coli TOP10", -0.0149],
  ["RRIRSRPPRLPRPRPRPHICPRP", "Escherichia coli TOP10", -0.127],
  ["RRIRVRPPRLPRPRPRPLQKPRP", "Escherichia coli TOP10", 0.0697],
  ["RRIRIRPPRLPRPRPRPLCVPRP", "Escherichia coli TOP10", -0.551],
  ["RRIRNRPPRLPRPRPRPVHTPRP", "Escherichia coli TOP10", 0.0171],
  ["RRIRFRPPRLPRPRPRPHFGPRP", "Escherichia coli TOP10", -0.197],
  ["RRIRNRPPRLPRPRPRPGKQPRP", "Escherichia coli TOP10", -0.406],
  ["RRIRVRPPRLPRPRPRPQSIPRP", "Escherichia coli TOP10", -0.176],
  ["RRIRPRPPRLPRPRPRPDISPRP", "Escherichia coli TOP10", 0.0683],
  ["RRIRMRPPRLPRPRPRPINVPRP", "Escherichia coli TOP10", -0.0528],
  ["RRIRVRPPRLPRPRPRPQFHPRP", "Escherichia coli TOP10", -0.186],
  ["RRIRKRPPRLPRPRPRPQRFPRP", "Escherichia coli TOP10", -0.00315],
  ["RRIRCRPPRLPRPRPRPRFYPRP", "Escherichia coli TOP10", -0.234],
  ["RRIRKRPPRLPRPRPRPKEAPRP", "Escherichia coli TOP10", 0.334],
  ["RRIRERPPRLPRPRPRPSMRPRP", "Escherichia coli TOP10", 0.353],
  ["RRIRLRPPRLPRPRPRPAYMPRP", "Escherichia coli TOP10", -0.275],
  ["RRIRFRPPRLPRPRPRPEIWPRP", "Escherichia coli TOP10", 0.217],
  ["RRIRKRPPRLPRPRPRPRMAPRP", "Escherichia coli TOP10", 0.818],
  ["RRIRMRPPRLPRPRPRPGDFPRP", "Escherichia coli TOP10", 0.215],
  ["RRIRQRPPRLPRPRPRPLADPRP", "Escherichia coli TOP10", 0.194]
]}
